These entries and their values trace back to patent US7576222B2.

List of inhibition at 1 µM values.
- testedSystem: catalytic domain of the recombinant TACE protein (Homo sapiens)
- Construct: The catalytic domain of the recombinant TACE protein was expressed and purified; made in house
- assayComment: TACE FRET assay using TACE cat
- Assay type: biochemical
- setupConditions: read-out: TACE Inhibition (%)
Response body: numeric value in %, unit text excluded.

CC#CCOc1ccc(S(=O)(=O)N[C@@H](Cc2c(C)n(Cc3ccc(C#N)cc3)c3ccc(Cl)cc23)C(=O)O)cc1 [Example 98] :: 61
CC#CCOc1ccc(S(=O)(=O)N[C@@H](Cc2c(C)[nH]c3ccccc23)C(=O)O)cc1 [Example 134] :: 64.2
CC#CCOc1ccc(S(=O)(=O)N[C@@H](Cc2cn(Cc3ccccc3C)c3ccc(Cl)cc23)C(=O)O)cc1 [Example 72] :: 27.5
CC#CCOc1ccc(S(=O)(=O)N[C@@H](Cc2cn(Cc3cccc(OC)c3)c3ccc(Cl)cc23)C(=O)O)cc1 [Example 75] :: 25
CC#CCOc1ccc(S(=O)(=O)N[C@@H](Cc2cn(Cc3cc(OC)cc(OC)c3)c3ccc(OC)cc23)C(=O)O)cc1 [Example 54] :: 38
CC#CCOc1ccc(S(=O)(=O)N[C@@H](Cc2cn(Cc3ccc(OC(F)(F)F)cc3)c3ccc(C(=O)O)cc23)C(=O)O)cc1 [Example 114] :: 10.3

Asked: Give the reported inhibition at 1 µM for CC#CCOc1ccc(S(=O)(=O)N[C@@H](Cc2cn(Cc3ccc(OC)cc3)c3ccc(C#N)cc23)C(=O)O)cc1 [Example 139] (system: catalytic domain of the recombinant TACE protein (Homo sapiens)).
Given back: 25.1

* * *

- testedSystem: catalytic domain of the recombinant TACE protein (Homo sapiens, UniProt P78536)
- Construct: The catalytic domain of the recombinant TACE protein was expressed and purified; made in house
- Sequence (P78536 223-474 limits assumed): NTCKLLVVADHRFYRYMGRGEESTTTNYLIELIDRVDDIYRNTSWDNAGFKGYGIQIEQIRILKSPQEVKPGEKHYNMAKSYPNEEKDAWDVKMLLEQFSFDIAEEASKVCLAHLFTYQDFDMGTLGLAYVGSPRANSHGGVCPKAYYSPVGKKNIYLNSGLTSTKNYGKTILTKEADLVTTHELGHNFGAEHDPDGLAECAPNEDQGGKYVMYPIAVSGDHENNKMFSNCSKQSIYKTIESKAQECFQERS
- assayComment: TACE FRET assay using TACE cat
- Format: biochemical
- setupConditions: TACE FRET assay, catalytic domain of recombinant TACE; read-out: TACE IC50
measuredAttribute: IC50

Recorded IC50, per entry:
CC#CCOc1ccc(S(=O)(=O)N[C@H](Cc2cn(Cc3ccc(F)cc3)c3ccccc23)C(=O)O)cc1 :: 1.9 µM
CC#CCOc1ccc(S(=O)(=O)N[C@H](Cc2cn(CCCCC)c3ccccc23)C(=O)O)cc1 :: 2.31 µM
CC#CCOc1ccc(S(=O)(=O)N[C@H](Cc2cn(C(=O)OC(C)(C)C)c3ccccc23)C(=O)O)cc1 :: 3.67 µM

Next up:
Asked: Give the reported IC50 for CC#CCOc1ccc(S(=O)(=O)N[C@H](Cc2c[nH]c3ccccc23)C(=O)O)cc1 (system: catalytic domain of the recombinant TACE protein (Homo sapiens, UniProt P78536)).
Given back: 2.53 µM
